# method description: Intrinsic clearance in human liver microsomes at 2 uM assessed per mg of protein
# Assay type: ADME, Microsome
# applied conditions: read-out: CLH
value type: microsomal CLint at 2 µM (µL/min/mg)

A selection of reference data follows.
The reported microsomal CLint at 2 µM of the compound `C=CCn1c(=O)c2c(-c3cncn3C)n(Cc3ccnc4ccc(Cl)cc34)nc2n(CC2CC2)c1=O` was 25

The reported microsomal CLint at 2 µM of the compound `C=CCn1c(=O)c2c(-c3cc(C#N)cn3C)n(Cc3ccnc4ccc(Cl)cc34)nc2n(CC2CC2)c1=O` was 33

The reported microsomal CLint at 2 µM of the compound `CC#CCn1c(=O)c2c(-c3cncn3C)n(Cc3ccnc4ccc(Cl)cc34)nc2n(CC2CC2)c1=O` was 47

1: CC(=O)c1cc(-c2c3c(=O)n(C)c(=O)n(CC4CC4)c3nn2Cc2ccnc3ccc(Cl)cc23)n(C)c1
2: Cn1cc(C#N)cc1-c1c2c(=O)n(C3CC3)c(=O)n(CC3CC3)c2nn1Cc1ccnc2ccc(Cl)cc12
q: For the two items 1 and 2 , which reports the higher microsomal CLint at 2 µM value? Bench note: the answer is the label of the chosen record.
a: 2
(2: 30 µL/min/mg, 1: 19 µL/min/mg)

I: C#CC(C)n1c(=O)c2c(-c3cncn3C)n(Cc3ccnc4ccc(Cl)cc34)nc2n(CC2CC2)c1=O (configuration not stated)
II: CC(C)Cn1c(=O)n(C)c(=O)c2c(-c3cc(C#N)cn3C)n(Cc3ccnc4ccc(Cl)cc34)nc21
q: For the two items I and II , which reports the higher microsomal CLint at 2 µM value? Bench note: the answer is the label of the chosen record.
a: II
(II: 94 µL/min/mg, I: 21 µL/min/mg)

----------
# method description: Intrinsic clearance in mouse liver microsomes at 2 uM assessed per mg of protein
# Format: ADME, Microsome
# applied conditions: read-out: CLH
value type: microsomal CLint at 2 µM (µL/min/mg)

A: C#CCn1c(=O)c2c(-c3cc(C#N)cn3C)n(Cc3ccnc4ccc(Cl)cc34)nc2n(CC2CC2)c1=O
B: Cn1cncc1-c1c2c(=O)n(CC3CC3)c(=O)n(CC3CC3)c2nn1Cc1ccnc2ccc(Cl)cc12
q: For the two items A and B , which reports the higher microsomal CLint at 2 µM value? Bench note: the answer is the label of the chosen record.
a: B

----------
# Test system: Helicobacter pylori
# method description: Antibacterial activity against AcrAB-TolC efflux pump-dificient Helicobacter pylori
# Type: functional
value type: MIC (µg/mL)

A selection of reference data follows.
The reported MIC of the molecule `CC(C)n1c(=O)c2c(-c3cc(C#N)cn3C)n(Cc3ccnc4ccc(Cl)cc34)nc2n(CC2CC2)c1=O` was 8

The reported MIC of the molecule `Cc1oc(C#N)cc1-c1c2c(=O)n(C)c(=O)n(CC3CC3)c2nn1Cc1ccnc2ccc(Cl)cc12` was 2

The reported MIC of the molecule `CCn1c(=O)c2c(-c3cncn3C)n(Cc3ccnc4ccc(Cl)cc34)nc2n(CC2CC2)c1=O` was 1

A: Cn1cncc1-c1c2c(=O)n(CC#CCO)c(=O)n(CC3CC3)c2nn1Cc1ccnc2ccc(Cl)cc12
B: Cn1cc(C#N)nc1-c1c2c(=O)n(C3CC3)c(=O)n(CC3CC3)c2nn1Cc1ccnc2ccc(Cl)cc12
q: I would appreciate it if you could say which entry, A or B , has the lower MIC value. Bench note: the answer is the label of the chosen record.
a: B

I: Cn1cc(C#N)cc1-c1c2c(=O)n(CCn3ccnn3)c(=O)n(CC3CC3)c2nn1Cc1ccnc2ccc(Cl)cc12
II: C#CC(C)n1c(=O)c2c(-c3cc(C#N)cn3C)n(Cc3ccnc4ccc(Cl)cc34)nc2n(CC2CC2)c1=O (centres undefined)
q: I would appreciate it if you could say which entry, I or II , has the lower MIC value. Bench note: the answer is the label of the chosen record.
a: II
(II: 8 µg/mL, I: 16 µg/mL)

a: C#CCn1c(=O)c2c(-c3nc(C#N)cn3C)n(Cc3ccnc4ccc(Cl)cc34)nc2n(CC2CC2)c1=O
b: Cn1cc(C#N)cc1-c1c2c(=O)n(CCO)c(=O)n(CC3CC3)c2nn1Cc1ccnc2ccc(Cl)cc12
q: For the two items a and b , which reports the higher MIC value? Bench note: the answer is the label of the chosen record.
a: b
(b: 16 µg/mL, a: 2 µg/mL)

Entry source: ChEMBL document CHEMBL2086265
